System: 186277-243-T-J2-PDC complex spheroids, viability;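 also: spheroids exposed to compounds for 7 days before viability read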
Test: Anticancer human tumor 186277-243-T-J2-PDC patient-derived colon adenocarcinoma cell line growth inhibition [RAS]
Conditions: second compound 1 µM; first compound 0.316 µM; active compounds read low
PROPERTY_MEASURED: viability, T/C (%)
Answers are plain numbers, in %.

Some solved entries appear below for comparison.
[[record]]
molecule = "CC1(O)CCCC1n1c(=O)c(C(F)F)cc2cnc(NC3CCN(S(C)(=O)=O)CC3)nc21 (stereo unspecified) + C#Cc1c(F)ccc2cc(O)cc(-c3ncc4c(N5CC6CCC(C5)N6)nc(OCC56CCCN5CC(F)C6)nc4c3F)c12"
numeric_result = 10

[[record]]
molecule = "CCN1CCN(Cc2ccc(Nc3ncc(F)c(-c4cc(F)c5nc(C)n(C(C)C)c5c4)n3)nc2)CC1 + C=CC(=O)N1CCN(c2nc(OCC3CCCN3C)nc3c(F)c(-c4nc(N)cc(C)c4C(F)(F)F)c(Cl)cc23)C(C)C1"
numeric_result = 135

[[record]]
molecule = "Nc1ccn(C2OC(CO)C(O)C2(F)F)c(=O)n1 (stereo unspecified) + C=CC(=O)N1CCN(c2nc(OCC3CCCN3C)nc3c(F)c(-c4nc(N)cc(C)c4C(F)(F)F)c(Cl)cc23)C(C)C1"
numeric_result = 13.5

[[record]]
molecule = "NC1c2ccccc2OC12CCN(c1cnc3c(N4CCCc5ncccc54)n[nH]c3n1)CC2 (stereo unspecified) + C=CC(=O)N1CCN(c2nc(OCC3CCCN3C)nc3c(F)c(-c4nc(N)cc(C)c4C(F)(F)F)c(Cl)cc23)C(C)C1"
numeric_result = 79.6

[[record]]
molecule = "Cc1nc(N2CCC3(CC2)COC(C)C3N)c(CO)nc1Sc1ccnc(N)c1Cl (stereo unspecified) + C=CC(=O)N1CCN(c2nc(OCC3CCCN3C)nc3c(F)c(-c4nc(N)cc(C)c4C(F)(F)F)c(Cl)cc23)C(C)C1"
numeric_result = 91.8


Requested field: viability, T/C. Item: NC1c2ccccc2OC12CCN(c1cnc3c(N4CCCc5ncccc54)n[nH]c3n1)CC2 (stereo unspecified) + C#Cc1c(F)ccc2cc(O)cc(-c3ncc4c(N5CC6CCC(C5)N6)nc(OCC56CCCN5CC(F)C6)nc4c3F)c12
7.39
